Biological target: human prostanoid EP2 receptor (Homo sapiens)
Construct: expressed in transfected cells
Sequence (P43116 whole entry): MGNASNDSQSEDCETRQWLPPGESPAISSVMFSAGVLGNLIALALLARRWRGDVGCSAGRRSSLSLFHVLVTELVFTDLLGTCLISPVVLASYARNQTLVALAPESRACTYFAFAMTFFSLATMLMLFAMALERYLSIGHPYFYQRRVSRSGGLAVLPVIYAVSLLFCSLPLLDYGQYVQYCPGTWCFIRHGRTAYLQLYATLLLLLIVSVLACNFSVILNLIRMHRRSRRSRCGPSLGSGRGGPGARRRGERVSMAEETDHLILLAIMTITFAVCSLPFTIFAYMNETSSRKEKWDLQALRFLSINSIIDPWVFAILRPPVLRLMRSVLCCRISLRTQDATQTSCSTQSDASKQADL
Assay: FLIPR Ca2+ signaling antagonist assay, EP2 receptor stable cell line
Type: cell-based
Details: HEK-293 EBNA stable cells with chimeric Gqs, standard agonist PGE2; NA = inactive (no antagonism or Kb≧10,000 nM)
Decide by Kb: equal to or exceeding 3000 nM means criterion met, less means criterion not met.

Exercise: hey, is Kb for this one >= 3000 nM? Cc1cc(CCC(=O)NS(=O)(=O)C(F)(F)F)nn1Cc1cc(Cl)ccc1OCc1ccc(Cl)cc1 [Example 1]
Key: criterion met

Exercise: Kb >= 3000 nM for Cc1cc(CCC(=O)O)nn1Cc1cc(C(F)(F)F)ccc1OCC1CCCC1 [Example 5] ?
Key: criterion met

Exercise: Dear colleague, could you confirm whether CCC(CC)COc1ccc(Br)cc1Cn1nc(CCC(=O)O)cc1C [Example 3] has Kb at or above 3000 nM?
Key: criterion not met

Next:
Exercise: Hi team, for CCC(CC)COc1ccc(Cl)cc1Cn1nc(CCC(=O)O)cc1C [Example 3a] , is the recorded Kb at or above 3000 nM?
Key: criterion not met

Exercise: Given the entry Cc1cc(CCC(=O)O)nn1Cc1cc(Cl)ccc1OCC1CCCC1 [Example 4a] , answer whether its Kb meets or surpasses 3000 nM.
Key: criterion met

Exercise: I'd appreciate it if you could say whether Cc1cc(CCC(=O)O)nn1Cc1cc(Br)ccc1OCC1CCCC1 [Example 4] has Kb at least equal to 3000 nM.
Key: criterion not met
